FYI, the data here is from patent US9029337B2.

Tested on: human Factor 7 mRNA
Procedure Text: Antisense inhibition of human Factor 7 mRNA in HepB3 cells, 50 nM antisense oligonucleotide, lipofectin
Format: cell-based
Condition: lipofectin, 50 nM antisense oligonucleotide, approximately 24 hours, Factor 7 mRNA by real-time RT-PCR (RTS 2927), relative to untreated control
Strand notation (5' to 3'): a small letter for the sugar, then the base; units joined by * are phosphorothioate-linked, units joined directly phosphodiester-linked; [ ] holds rarer units or linkages, { } end groups; capitals alone tell only the bases. e = 2'-O-(2-methoxyethyl) (MOE); [5mC] = 5-methylcytosine; d = 2'-deoxy (DNA)
Each item that follows carries a reported % Inhibition.
Value Kind: % Inhibition (%)

>>> result_number("416495 (antisense eT*e[5mC]*eT*eA*eG*dA*dA*dT*dT*d[5mC]*d[5mC]*dA*dA*dA*d[5mC]*e[5mC]*e[5mC]*e[5mC]*eT*eA) [compound 416495]")
0
>>> result_number("416425 (antisense eA*eA*eG*e[5mC]*eA*dG*dA*dA*dG*dG*d[5mC]*dA*dG*dA*dG*eG*eA*eG*e[5mC]*e[5mC]) [compound 416425]")
13
>>> result_number("416533 (antisense eG*e[5mC]*eA*eT*eT*d[5mC]*dT*dG*dG*dA*d[5mC]*d[5mC]*d[5mC]*dA*dG*eA*eT*eG*eA*e[5mC]) [compound 416533]")
41
>>> result_number("416560 (antisense eT*eA*eA*eA*eA*d[5mC]*dT*dT*dT*dA*dT*dT*dT*dA*d[5mC]*eA*eA*eG*eA*eG) [compound 416560]")
0
>>> result_number("416450 (antisense eG*eG*eT*eT*eT*dG*d[5mC]*dT*dG*dG*d[5mC]*dA*dT*dT*dT*e[5mC]*eT*eT*eT*eT) [compound 416450]")
49
>>> result_number("416509 (antisense eA*eG*eG*eA*eG*d[5mC]*d[5mC]*d[5mC]*dG*dA*dG*dT*dT*d[5mC]*dT*eG*e[5mC]*eA*eG*eG) [compound 416509]")
56
>>> result_number("416427 (antisense e[5mC]*e[5mC]*e[5mC]*eT*eG*dA*dA*dG*d[5mC]*d[5mC]*d[5mC]*dA*dA*dG*d[5mC]*eA*eG*eA*eA*eG) [compound 416427]")
5
>>> result_number("416539 (antisense eG*eA*e[5mC]*eA*eG*dA*dG*d[5mC]*d[5mC]*dT*dG*dA*dG*d[5mC]*dT*eT*eG*eG*e[5mC]*eA) [compound 416539]")
53
>>> result_number("416483 (antisense eT*eG*eT*eG*eA*dG*dG*dG*dT*dT*d[5mC]*dA*dT*dT*dT*e[5mC]*eA*eG*eT*eG) [compound 416483]")
22
>>> result_number("416553 (antisense eG*eG*eT*eT*e[5mC]*dT*d[5mC]*dT*dG*d[5mC]*dA*d[5mC]*dA*dG*dG*eG*eT*eA*eG*eA) [compound 416553]")
56
>>> result_number("416496 (antisense e[5mC]*eA*eA*e[5mC]*eA*d[5mC]*dT*dT*d[5mC]*dA*dA*dA*dT*dA*d[5mC]*eG*eA*eT*e[5mC]*eT) [compound 416496]")
0
>>> result_number("416434 (antisense e[5mC]*eT*eG*eT*eA*dA*dG*dA*dA*dA*dT*d[5mC]*d[5mC]*dA*dG*eA*eA*e[5mC]*eA*eG) [compound 416434]")
0
>>> result_number("416467 (antisense e[5mC]*e[5mC]*e[5mC]*eT*eG*dG*d[5mC]*d[5mC]*d[5mC]*d[5mC]*dA*dG*d[5mC]*dT*dG*eA*e[5mC]*eG*eA*eT) [compound 416467]")
55
>>> result_number("416559 (antisense eG*e[5mC]*e[5mC]*eA*eT*dT*dT*d[5mC]*dT*dA*dG*dG*dT*d[5mC]*dT*eG*e[5mC]*eA*eG*eG) [compound 416559]")
25
>>> result_number("416476 (antisense eG*e[5mC]*eA*eG*eG*dT*dG*dG*dG*d[5mC]*dT*dT*dG*dG*d[5mC]*eT*eG*eA*eA*eG) [compound 416476]")
58

###

System: human Factor 7 mRNA
Procedure Text: Dose-dependent antisense inhibition of human Factor 7 in HepB3 cells, lipofectin
Format: cell-based
Condition: 12.5 nM, HepB3 cells, approx. 16 hours (Table 14)
Strand notation (5' to 3'): a small letter for the sugar, then the base; units joined by * are phosphorothioate-linked, units joined directly phosphodiester-linked; [ ] holds rarer units or linkages, { } end groups; capitals alone tell only the bases. e = 2'-O-(2-methoxyethyl) (MOE); [5mC] = 5-methylcytosine; d = 2'-deoxy (DNA)
Each item that follows carries a reported percent inhibition of Factor 7 mRNA, relative to untreated control cells.
Value Kind: percent inhibition of Factor 7 mRNA, relative to untreated control cells (%)

>>> result_number("422086 (antisense eT*eG*e[5mC]*eA*eT*dG*dG*dT*dG*dA*dT*dG*d[5mC]*dT*dT*e[5mC]*eT*eG*eA*eA) [compound 422086]")
46
>>> result_number("422177 (antisense e[5mC]*e[5mC]*e[5mC]*dG*d[5mC]*d[5mC]*dG*dG*d[5mC]*dT*d[5mC]*dT*dG*d[5mC]*dT*d[5mC]*dA*eT*e[5mC]*e[5mC]) [compound 422177]")
44
>>> result_number("422130 (antisense eG*e[5mC]*e[5mC]*eT*eG*dA*dG*dG*d[5mC]*d[5mC]*dA*dG*d[5mC]*dA*dG*eA*eT*e[5mC]*eA*e[5mC]) [compound 422130]")
34
>>> result_number("422217 (antisense eG*eA*eG*dT*dT*d[5mC]*dT*dG*d[5mC]*dA*dG*dG*dA*dG*d[5mC]*dG*dG*e[5mC]*e[5mC]*eT) [compound 422217]")
45

###

Test system: human Factor 7 mRNA
Procedure Text: Antisense inhibition of human Factor 7 mRNA in HepB3 cells, 50 nM antisense oligonucleotide, lipofectin
Format: cell-based
Condition: lipofectin, 50 nM antisense oligonucleotide, approximately 24 hours, Factor 7 mRNA by real-time RT-PCR (RTS 2927), relative to untreated control
Strand notation (5' to 3'): a small letter for the sugar, then the base; units joined by * are phosphorothioate-linked, units joined directly phosphodiester-linked; [ ] holds rarer units or linkages, { } end groups; capitals alone tell only the bases. e = 2'-O-(2-methoxyethyl) (MOE); [5mC] = 5-methylcytosine; d = 2'-deoxy (DNA)
Value Kind: % Inhibition

>>> result("416429 (antisense eA*e[5mC]*eG*e[5mC]*e[5mC]*dG*dT*dG*dG*dG*d[5mC]*dT*dT*d[5mC]*d[5mC]*eT*e[5mC]*e[5mC]*eT*eG) [compound 416429]")
"47%"
>>> result("416442 (antisense eA*eG*e[5mC]*eA*eG*dA*dT*dA*dT*dA*dG*dG*dA*d[5mC]*dT*eG*eG*eA*eG*e[5mC]) [compound 416442]")
"57%"
>>> result("416468 (antisense eT*eG*eG*eG*eA*dG*dA*d[5mC]*d[5mC]*d[5mC]*dT*dG*dG*dT*dG*eT*eA*e[5mC]*eA*e[5mC]) [compound 416468]")
"46%"
>>> result("416451 (antisense eG*e[5mC]*e[5mC]*eA*eT*dG*dG*dA*d[5mC]*dA*d[5mC]*dT*d[5mC]*d[5mC]*d[5mC]*e[5mC]*eT*eT*eT*eG) [compound 416451]")
"75%"

###

System: human Factor 7 mRNA
Procedure Text: Antisense inhibition of human Factor 7 with short (14-mer) oligonucleotides in HepB3 cells, electroporation 1,000 nM
Assay type: cell-based
Condition: electroporation, 1,000 nM antisense oligonucleotide, approximately 24 hours, Factor 7 mRNA relative to untreated control cells
Strand notation (5' to 3'): a small letter for the sugar, then the base; units joined by * are phosphorothioate-linked, units joined directly phosphodiester-linked; [ ] holds rarer units or linkages, { } end groups; capitals alone tell only the bases. e = 2'-O-(2-methoxyethyl) (MOE); [5mC] = 5-methylcytosine; d = 2'-deoxy (DNA)
Value Kind: % Inhibition (%)

>>> result_number("435728 (antisense eA*e[5mC]*dA*d[5mC]*dA*dT*dG*dG*dA*dG*dT*d[5mC]*eA*eG) [compound 435728]")
16
>>> result_number("435502 (antisense eG*eT*dA*d[5mC]*dT*dG*dG*dG*dA*dG*dA*d[5mC]*e[5mC]*e[5mC]) [compound 435502]")
69
>>> result_number("435782 (antisense e[5mC]*eG*dT*dG*d[5mC]*dG*d[5mC]*dT*d[5mC]*dA*dG*d[5mC]*eT*e[5mC]) [compound 435782]")
36
>>> result_number("435722 (antisense eT*eG*dG*dG*d[5mC]*dT*dT*dG*dG*d[5mC]*dT*dG*eA*eA) [compound 435722]")
50
>>> result_number("435744 (antisense e[5mC]*eT*dA*d[5mC]*dA*dG*d[5mC]*d[5mC]*dT*d[5mC]*dA*dA*eA*e[5mC]) [compound 435744]")
19
>>> result_number("435638 (antisense eA*eG*d[5mC]*d[5mC]*d[5mC]*dT*dG*dA*dA*dG*d[5mC]*d[5mC]*e[5mC]*eA) [compound 435638]")
55
>>> result_number("435735 (antisense eT*eG*dG*dT*dG*dA*dT*dG*d[5mC]*dT*dT*d[5mC]*eT*eG) [compound 435735]")
81
>>> result_number("435772 (antisense eG*e[5mC]*dA*dG*dT*d[5mC]*d[5mC]*d[5mC]*dT*dG*d[5mC]*dT*e[5mC]*eA) [compound 435772]")
42
>>> result_number("435851 (antisense eA*e[5mC]*dA*dG*dG*d[5mC]*d[5mC]*dA*dG*dG*d[5mC]*dT*eG*eG) [compound 435851]")
0
>>> result_number("435760 (antisense eT*e[5mC]*dT*dT*dG*dG*dG*dT*dG*dT*dG*dG*eA*eT) [compound 435760]")
17
>>> result_number("435644 (antisense eT*eG*dG*dT*d[5mC]*d[5mC]*dT*dT*dG*d[5mC]*dA*dG*eG*eA) [compound 435644]")
30
>>> result_number("435731 (antisense eG*eT*dG*dA*dG*dA*dG*d[5mC]*dT*dA*dA*dA*e[5mC]*eA) [compound 435731]")
11
>>> result_number("435663 (antisense e[5mC]*e[5mC]*dA*d[5mC]*dA*dT*dG*dG*dA*dT*dA*dT*eT*e[5mC]) [compound 435663]")
50
>>> result_number("435767 (antisense e[5mC]*eA*d[5mC]*d[5mC]*dA*dA*dG*dT*dT*dT*dA*dT*eG*eG) [compound 435767]")
0
>>> result_number("435680 (antisense eG*eT*dG*d[5mC]*dT*d[5mC]*dG*d[5mC]*dT*dG*dA*dG*eG*eT) [compound 435680]")
52
